Values from patent US7902373B2

- Assayed target: human recombinant H-PGDS (Homo sapiens)
- Sequence (O60760 whole entry): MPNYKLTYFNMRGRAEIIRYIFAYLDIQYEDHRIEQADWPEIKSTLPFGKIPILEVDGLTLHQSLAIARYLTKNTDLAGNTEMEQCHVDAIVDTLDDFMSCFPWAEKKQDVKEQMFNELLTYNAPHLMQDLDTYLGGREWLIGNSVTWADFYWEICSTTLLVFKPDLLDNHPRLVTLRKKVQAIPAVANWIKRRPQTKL
- Assay comment: Fluorescence intensity h-PGDS TBA enzyme assay
- Assay type: biochemical
- Particulars: Examples up to 622 (and 3a, 3b)
pIC50: −log10 of the molar value.
I would appreciate it if you labelled entries Criterion met when pIC50 is 9 or higher, otherwise Criterion not met.

Entry smiles	Answer label
COc1cc2nc(N3CCC(NC(=O)c4ccc(-c5cccc(F)c5)nc4)CC3)nc(N)c2cc1OC	Criterion not met
O=C(NC1CCN(c2nccc(C(F)(F)F)n2)CC1)c1ccc(-c2cccc(F)c2)nc1	Criterion not met
NC(=O)c1ccc(N2CCC(NC(=O)c3ccc(-c4cccc(F)c4)nc3)CC2)nc1	Criterion met
O=C(NC1CCN(Cc2cccc(OCCO)c2)CC1)c1ccc(-c2cccc(F)c2)nc1	Criterion met
CC(C)c1nccnc1N1CCC(NC(=O)c2ccc(-c3cccc(F)c3)nc2)CC1	Criterion not met

Now consider a different compound.
*Q* Does `CCOc1cc(OC)ccc1CN1CCC(NC(=O)c2ccc(-c3cccc(F)c3)nc2)CC1` have a reported pIC50 of at least 9?
*A* Criterion not met
